# PBM binding z-score listing for each entry below
# Tested on: THRa homodimer (NR concentration 90 nM)
# assay_comment: PBM binding z-score (relative to random genomic background probes); higher = stronger binding; sequences stand for … in GC…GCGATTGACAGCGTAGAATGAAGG

chain	target_or_system	outcome_measure	value_measured
CCTTACAGGTCACTCCAGGTTATAGCATCGGAGT	THRa homodimer (NR concentration 90 nM)	PBM binding z-score	1.32

Looking up CAAACTAGGTCAAGACGTCAAAGTCCGCTTCCCG , I see its PBM binding z-score listed as 0.895

PBM binding z-score recorded for this sequence, GGAATGAGGGCATTCGAGTTGATAGCATGGCGAT , is 0.191

sequence ATCGAAAGGACGAGGTGAGTATAGAGAAAGGGAA , PBM binding z-score observed: 0.739

PBM binding z-score reading for AGAATAAGGTTATACGTAGATCAGGGAAGAAAGT : 0.789

PBM binding z-score reported for this sequence TCTATTAGTTGAGTAGGGCAACCGAAACAGCGGA : -0.445

For reference, reported PBM binding z-score for TCGAGTAGGATAGTCGGGGCATTCAGCCAACATA stands at -0.471

The sequence identified as TCGAGAAGGTTACCAATGGGGCATTCAGCTTTCT registered its PBM binding z-score at -0.839

The sequence listed as TAGCCTAGGCCATTCAGGGGCCAGTATAGAAAGC shows PBM binding z-score equal to -0.688

Recorded result, TCGAGTAGGTTACCAATGTGGCATTCAGCTTTCT , PBM binding z-score: -0.499

Sample ATACCAAGGCGATCGTGAGGTCGTTGATACTAAC ; PBM binding z-score observed: 1.5

Recorded PBM binding z-score (sequence CCTGCTTGGTCATGGTCAGCTAATCTACAGTATG ): -0.506

Documented PBM binding z-score of ACTAGCAGGCGAAGTTTGGGTCACTCAAACAAAG : 0.813

In plain terms, GCGACTGGGGCAAAGCAGGATACCATAAGGTTGG has a documented PBM binding z-score of -0.419

Entry under test: CCTCCAAGGTCAAGGTCAGTGAAAGAGACTCGAA . Its PBM binding z-score was 3.64

The reported PBM binding z-score of the sequence CCAGACAGGTGAAAGGTAACACAGTCTGGTACGC was -0.219

sequence ACTATTAGTTGAGACGAGGGCAACCGGTAGGTTG , PBM binding z-score observed: 0.339

---

Readings of PBM binding z-score for the listed sequences
# Tested on: FXR:RXRa (NR concentration 270 nM, RXRa partner concentration 90 nM)
# assay_comment: PBM binding z-score (relative to random genomic background probes); higher = stronger binding; sequences stand for … in GC…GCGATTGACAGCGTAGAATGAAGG
Form rule: numeric answer, no unit written next to it.

// worked examples, PBM binding z-score included
chain	target_or_system	value_measured
CCTTACGGGTCACGAGGTTATCGCACGACGAGCG	FXR:RXRa (NR concentration 270 nM, RXRa partner concentration 90 nM)	6.89
GCAAATAGGTAATACAAGGTGAAAGTCCGATTGT	FXR:RXRa (NR concentration 270 nM, RXRa partner concentration 90 nM)	2.27
CCTACTGGGCCATTCAGAGGTCATTGCTCATATG	FXR:RXRa (NR concentration 270 nM, RXRa partner concentration 90 nM)	2.76
TCTTGTAGATCAACAGAAGGTTAAGAAAGATCGA	FXR:RXRa (NR concentration 270 nM, RXRa partner concentration 90 nM)	0.396

Reported FXR:RXRa (NR concentration 270 nM, RXRa partner concentration 90 nM) PBM binding z-score for item TCTTGTAGATCAATAGAGGTTAAGAAAGTGCGCT was 0.723

The sequence CCTAGTTGGTCAGGAGGTCACTCACCGGATATGA , tested on FXR:RXRa (NR concentration 270 nM, RXRa partner concentration 90 nM), showed PBM binding z-score of 3.08

PBM binding z-score on FXR:RXRa (NR concentration 270 nM, RXRa partner concentration 90 nM) for CGTCCGAGGTCAGCAGGTCAGTGAAAGCGACGTG is 6.67

# CAAACTCGGTCAAAGGTCAAAGTCGAGCCAACCA with FXR:RXRa (NR concentration 270 nM, RXRa partner concentration 90 nM): PBM binding z-score is 7.73

PBM binding z-score of TCTCGGAGGACACGAAGGTCCGAGCTTTCCAGAG , assay on FXR:RXRa (NR concentration 270 nM, RXRa partner concentration 90 nM), is 0.324

Per the reported FXR:RXRa (NR concentration 270 nM, RXRa partner concentration 90 nM) data, GAAGACAGGTGAAACGCAGGTAACTCAGGGTGGC has PBM binding z-score of 0.0149

Form: item CGTCCAAGGTCAATGCTAGGTCAGTGACAGCATT ; test system FXR:RXRa (NR concentration 270 nM, RXRa partner concentration 90 nM); PBM binding z-score: 6.74

Reading of PBM binding z-score for GTGCCAAGGTGAATAGGTCGTTGATGAGTAGGCG with FXR:RXRa (NR concentration 270 nM, RXRa partner concentration 90 nM): 0.631

Assay FXR:RXRa (NR concentration 270 nM, RXRa partner concentration 90 nM), sample GCAGCTAGGTCAACTGATGGTCAGCTAAAGCTCG , PBM binding z-score read: 3.76

Entry CCGTCTGGGGCAAGGTTACCATAACGCACAGCCA ; assay system FXR:RXRa (NR concentration 270 nM, RXRa partner concentration 90 nM); PBM binding z-score recorded at 0.304

Here ATATGTAGGTTATCGGGTCGTTCAGTTTGCGCAT was tested on FXR:RXRa (NR concentration 270 nM, RXRa partner concentration 90 nM), and its PBM binding z-score came to 1.16

---

# System: PPARg:RXRa IVT, anti-PPARg (NR concentration 270 nM, RXRa partner concentration 90 nM)
# assay_comment: PBM binding z-score (relative to random genomic background probes); higher = stronger binding; sequences stand for … in GC…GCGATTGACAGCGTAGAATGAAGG
Entries are grouped by PBM binding z-score into these classes: b0 = under 0.7, b1 = from 0.7 up to 2, b2 = 2 and over

Example entries and their recorded answers appear below.
chain	class
AGTCAAAGTTCATCTAGGAAACGTAAGATATGCT	b2
AGAATGAGGTTGAGATCAGGGAAACAGAATACAT	b0

INPUT: Input TCATATAGGTAAATAGGTGAAAGTCCGTAAGTTA ; output its category
OUTPUT: b2

INPUT: Band for the recorded PBM binding z-score of TCTTGTAGATCAAAGGTTCAGAAAGCCGAAGCCT ?
OUTPUT: b1

INPUT: Consider TGAATGAGGTCATAAGATCAGGGAACGTTGCAAA . To which PBM binding z-score class does it belong?
OUTPUT: b2

INPUT: Sort into band: GCTTACGGGTCAAAGGTGATAGCATGAATAGAAT
OUTPUT: b2

INPUT: Class for TGTCCAAGTTCAAAGGTAACGTAAGTATCCACAC ?
OUTPUT: b1

INPUT: Category lookup for the sequence ACTATTAGTTGAGACGAGGGCAACCCATAGGTTG
OUTPUT: b0

INPUT: Determine which band this sequence sits in: AGTCAAAGTGCACTAGGTAACGTAAGATTCAGCT
OUTPUT: b2

---

# System: RARb homodimer (NR concentration 270 nM)
# assay_comment: PBM binding z-score (relative to random genomic background probes); higher = stronger binding; sequences stand for … in GC…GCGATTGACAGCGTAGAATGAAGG
This section presents sequences with their documented PBM binding z-score values.
Please respond with just the number, no unit label.

The observed PBM binding z-score for TTACCACGGTGAGCTGAGGTCGTTGATCCAACTC when tested with RARb homodimer (NR concentration 270 nM) stands at 0.63

Here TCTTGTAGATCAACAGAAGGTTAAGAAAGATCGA was tested on RARb homodimer (NR concentration 270 nM), and its PBM binding z-score came to 0.688

I looked up CCTAATGGGCCAAGGTCATTGATCAGTCAAAGCA and its PBM binding z-score for RARb homodimer (NR concentration 270 nM) was 3.46

---

# Tested on: PPARa:RXRa (NR concentration 270 nM, RXRa partner concentration 90 nM)
# assay_comment: PBM binding z-score (relative to random genomic background probes); higher = stronger binding; sequences stand for … in GC…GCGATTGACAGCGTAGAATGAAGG
Collected PBM binding z-score values appear next to each entry.
A bare number is all that is needed in reply.

Sample answers from the record:
chain	PBM binding z-score
TCTATTGGTTGAAGGGCAACCGACGAGTCCGTTT	1.23
TCATATATGTAAACAGGTGAAAGTCCGTAAGTTA	1.84
AGACTGAGGTTACCAAAGATCAGGGAAACGCTTG	2.79
CAGCCTAGGTCAGCGCCAGTATAGGAGGAACGTT	1.92
ATCTCTAAGTAAAAGTTCAGTGAATCCCGAGGAT	1.6
TCATGTAGATCAGCAGGTTAAGAAAGCTGGCCAA	0.606

Could you now consider this next sequence?
Form: sequence = ATCTCTAGGTAAGACTCAGTTCTGTGAAGAACGC ; PBM binding z-score = 0.118
